# Z.LYZ.NS (standard z score) annotations
test system: ENR+CD organoids (ISC to Paneth cell differentiation); assay: Primary screen: basal (non-stimulated) lysozyme secretion LYZ.NS, 2.5-D 384-well ENR+CD organoid differentiation; assay type: cell-based, mouse; settings: primary screen, dose 0.08 uM
Answer using only a numeral; do not append any unit.

[ask] // Z.LYZ.NS (standard z score) lookup, key: `COc1ccc(COc2ccc(Cc3cnc(N)nc3N)cc2OC)cc1`
[reply] 0.056

Further cases:
[ask] // Z.LYZ.NS (standard z score) lookup, key: `C[C@@H](c1ncncc1F)[C@](O)(Cn1cncn1)c1ccc(F)cc1F`
[reply] 2.192
